assay: label from the status in PepcDB records
reported.property: protein production

MAEVHVIGQIMGASGFSESSLFCKWGIHTGAAWKLLSGVREGQTQVDTPQIGDMAYWSHPIDLHFATKGLQGWPRLHFQVWSQDSFGRCQLAGYGFCHVPSSPGTHQLACPTWRPLGSWREQLARAFVGGGPQLLHGDTIYSGADRYRLHTAAGGTVHLEIGLLLRNFDRYGVEC    failed
MNYFIVEVSEQEVKREKEKARELRRSQWWKNRIARGICHYCGEIFPPEELTMDHLVPVVRGGKSTRGNVVPACKECNNRKKYLLPVEWEEYLDSLESEPSDGEGLEHHHHHH    not failed
MRVLITGATGGLGGAFARALKGHDLLLSGRRAGALAELAREVGARALPADLADELEAKALLEEAGPLDLLVHAVGKAGRASVREAGRDLVEEMLAAHLLTAAFVLKHARFQKGARAVFFGAYPRYVQVPGFAAYAAAKGALEAYLEAARKELLREGVHLVLVRLPAVATGLWAPLGGPPKGALSPEEAARKVLEGLFREPVPALLEV    not failed
MTQASRSEFRAELLSRIPRWYSPWGHLLFPAVAGLAIAAFALSRIEDLAAWQLAAVPAFLVFGNAVEWTAHRGMLHRRLRFAEVFYVRHTPQHHAVYVADDMAMRDWRELKLVLLPAYGVLAILAVTSPLTLAFLWLRQPNLAALWVASVVLYVLSYEWLHLAYHLPADRWLARTALVRTLRRHHQLHHAPHLMNRWNFNVTVPLWDWVRGTLYPAPAPGSRPAAQPTGAAGRAP    failed
MHEIYIYLGIMFMPTYKHSHTPSHDIEDDEDEGTEHLVDELRTNAGAFEEEALVEKLLENLDLDEVEEDEHDAANASFFDSLHFSSIFVLQKREGENESF    failed
YMVPGLWGAPLKAVSAFAPPMKTQDFNLYTNEVHAKFDDYDLGMEYARQHNKPVMLDFTGYGCVNCRKMELAVWTDPKVSSIINNDYVLITLYVDNKTPLTEPVKIMENGTERTLRTVGDKWSYLQRVKFGANAQPFYVLIDNEGNPLNKSYAYDEDISKYINFLQTGLENYRKEK    failed
MDIKRYCPVTDSELPADHVYFKFRSEIEAAEAYLGLAISEGIKVRETREILDIIDTVYNSLSDPESKLNDFQEKRLNFTEEDWYDIKEKANNGNRWSLYMFLARSAVDSAVYWSYRMKETEEFKEIVKEEMISKLLKAGYVILRESLGEVRL    not failed
MAKPPTTIEVSPTITLPQQDPSLMGVTVSINGADQRTDQALAKVTRDNQIVTLTASRDLRFLLQEVLEKQMTARGYMVGPNGPVNLQIIVSQLYADVSQGNVRYNIATKADIAIIATAQNGNKMTKNYRASYNVEGAFQASNKNIADAVNSVLTDTIADMSQDTSIHEFIKQNARLEHHHHHH    not failed
QKQYWVCNSSDASISYTYCDKMQYPISINVNPCIELKGSKGLLHIFYIPRRDLKQLYFNLYITVNTMNLPKRKEVICRGSDDDYSFCRALKGETVNTTISFSFKGIKFSKGKYKCVVEAISGSPEEMLFCLEFVILHQPNSN    failed
MSDYYLFAGRLFIAVMYVLSGANKLLFFSHGLDEVKSRNLPFPQLALSATIAVQLICGLAIMAGFQTTTASLLLALFTLATAVLFYDFWNQEGAQRTLMFTGFLEHISIIGGFALLMGAGPGKFVLLP    failed

## Input Need protein production, item MSLRWQWRIYEEPLQEPLTTAQGVWRSRSGIYLRLEDEQGQVGYGEIAPLPGWGSETLNADIALCQQLPGHLTPEIMATIPEALPAAQFGFATAWQSVGRLPYRVRPWPICALLGSGQAALEQWQQSWQRGQTTFKWKVGVMSPEEEQAILKALLAALPPGAKLRLDANGSWDRATANRWFAWLDRHGNGKIEYVEQPLPPDQWQALLSLAQTVTTAIALDESVVSAAEVQRWVDRGWPGFFVIKTALFGDPDSLSLLLRRGLEPQRLVFSSALEGAIARTAIFHLLETWQPCHALGFGVDRWRSAPLLTTLTAYERLWERLDQGHHHHHH
## Output not failed

## Input Value lookup for protein production; key = YRATKLWNEVTTSFRAGMPLRKHRQHFKKYGNCFTAGEAVDWLYDLLRNNSNFGPEVTRQQTIQLLRKFLKNHVIEDIKGRWGSENVDDNNQLFRFPA
## Output not failed

## Input I would be grateful if you could share the reported protein production for TLLLIFSFFVVTIGGLVQIVPLFYLENTIEKVEGVRPYTPLELAGRDIYIREGCYVCHSQMIRPMRDETERYGHYSLAAESMYDHPFQWGSKRTGPDLARVGERYSDEWHVDHLTNPQSVVPESIMPKYGFLSHTVIDGRYIRDLMSVHRIVGVPYSDEMLENAVADFKAQANPDADTDGLLERYGKAAVRNFDGQAELTEMDALISYLQVLGT .
## Output failed

## Input Would you kindly share the measured protein production for LRESEARLKGIAGNVPGLVFRLERDPAEGDLEFPYISEGSEALVGYAPSEIQHPQMGLRNLVHPEDRADYHRVQDLALASDQDWSWQGRILTRQGEQRWADIKASARHLGNGQVVWDGVVWDITQGKRAELALAKSQEQLRELSAHLESVREEEKARIAREVHDELGQM ?
## Output not failed

## Input Fill in the blank: the reported protein production of MSLTNDERILSWNETPSKPRYTPPPGAIDAHCHVFGPMAQFPFSPKAKYLPRDAGPDMLFALRDHLGFARNVIVQASCHGTDNAATLDAIARAQGKARGIAVVDPAIDEAELAALHEGGMRGIRFNFLKRLVDDAPKDKFLEVAGRLPAGWHVVIYFEADILEELRPFMDAIPVPIVIDHMGRPDVRQGPDGADMKAFRRLLDSREDIWFKATCPDRLDPAGPPWDDFARSVAPLVADYADRVIWGTDWPHPNMQDAIPDDGLVVDMIPRIAPTPELQHKMLVTNPMRLYWSEEMEGHHHHHH is ____.
## Output not failed

---

assay: label from the status in PepcDB records
reported.property: protein production

Examples with their reported protein production follow.
MGNFSLFSSFNPEGQHDDVANRWRSPTPMRYIIPNIITILAICAGMSSIRLAFEHRYEAAILMVLLAAILDGADGRIARLMDGSSSFGAQMDSLADVINFGVAPSLIVYSFVLNQAHQVGWIAGLVYCVACCLRLARFNVMLDNTDIPKWQGNYFVGVPAPAGALLLLLPMYLGALGLVPSWSWALFFSLYTVIIAFLLVSRLPVWNGKTINQNLRRDIVVPCMLGIVIYVGFLATYTWHTLLITAVSYMIFLPCSFVAYNKRAALEEKKANIKTLSSS    failed
MLVNGQHYHLINDISGEKPVLLMLHGFTGSSETFQDSISLLKEHFSIIAPDLLGHGKTSCPKEVARYSIENICDDLASILHQLKIDSCFVLGYSMGGRVATAFAAKYKELVRGLVLVSSSPGLRDEKARASRISADNRLADTLDADGIEPFVAYWENLALFASQKNLPFALKKRIRLERLAQNPHGLAKSLRGMGTGKQPSYWENLADFTFPVLLITGNLDEKFEKIAREMKQLLPNSTHVTVQEAGHAVYLEQPNIFSSQLIYWLEGILKEEEK    failed
MDVSFEFEHYQVRLIKSSDAVTIANYFMRNRHHLAPWEPKRSHAFFTPEGWKQRLLQLVELHKHNLAFYFVVVDKNEHKIIGTVSYSNITRFPFHAGHVGYSLDSEYQGKGIMRRAVNVTIDWMFKAQNLHRIMAAYIPRNEKSAKVLAALGFVKEGEAKKYLYINGAWEDHILTSKINDDWKPE    failed
KPIKIRGPSHCAGCKEEIKHGQSLLALDKQWHVSCFKCQTCSVILTGEYISKDGVPYCESDYHAQFG    not failed

## Input // query protein production value for entry MASRSKPSVRAFARQVHLWLGLSIGVLFAVVGLTGSILVFYTAIDDALHPEIRLRGAAPPPSWEQVYQTARATYPDKAGPWRFEVTEAGGDIPARYYKPPERADRDFAPMMVWFSADGGRVIRRDYWGEYAMTWVYDLHHRLLLQATGGAILGWSGLAMLALMVAGLTAWWPRRGGWRKALQMKPRAAPLRKLYDWHKQTGLWSFGLLVLLTLTGVLLALPKESEIALRPILGPPAGAPTIDKSITFDPGTRISVDQAVAIAQGALPGARLAWIETPSTDSGVYRLRLQTPGDPSRRFPHSFVWITPATGEVLAMTDARQAGAHDVLLNWTHPLHDASAGGLPARLLAVLVGLAPSALLILGFMRWRQRLRPQERKLSDHS
## Output failed

## Input Please look up its protein production: MPSFDIVSEITLHEVRNAVENANRVLSTRYDFRGVEAVIELNEKNETIKITTESDFQLEQLIEILIGSCIKRGIEHSSLDIPAESEHHGKLYSKEIKLKQGIETEMAKKITKLVKDSKIKVQTQIQGEQVRVTGKSRDDLQAVIQLVKSAELGQPFQFNNFRD
## Output not failed

## Input Fill in the blank: the reported protein production of QDKKEQFKQLFQIVEQSFGRPLSPYEIETLNQWIDVDHHDLSVIQAALDEALSQNKLSFKYIDRILLNWKKNNV is ____.
## Output not failed

## Input Field request: protein production | item: YTVRLETEHAKEILSSDSPWASLEMFSFYGNYLKLVRTEYEGLRLSSGDTVFFLGSGPLPLTLIVFFRLYGVKSTGIEKDSFRANLSKKVLEKLGLSSVIKIVNGNHFSLSRKDLSLSPDTGVKALMIAAQAEPKKEIFEHLLEVMPIGGRISC
## Output failed
